Test system: Escherichia coli TOP10;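 also: peptides expressed intracellularly from a pBAD plasmid library in pooled LB shake-flask culture, induced with 0.3% L-arabinose, DNA abundance read by NGS, three biological replicates, DESeq2 with apeglm shrinkage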
assay-summary: shrunken log2 fold change of peptide-encoding DNA abundance (4.5 h post-induction vs induction); higher = less antimicrobial activity (less host growth inhibition)
experimental-parameters: time post-induction: 4.5 h; library: site-saturation at positions 5, 18, 19, 20
Classification scheme (shrunken log2 fold change): bottom bin: < -0.1; middle bin: ≥ -0.1 and < 0.08; top bin: ≥ 0.08

residue_string=RRIRRRPPRLPRPRPRPWVVPRP class_label="middle bin"
residue_string=RRIRHRPPRLPRPRPRPSDLPRP class_label="bottom bin"
residue_string=RRIRERPPRLPRPRPRPEQGPRP class_label="middle bin"

**Q:** # bin lookup: classify `RRIRIRPPRLPRPRPRPEFNPRP` by its shrunken log2 fold change
**A:** middle bin

**Q:** # bin lookup: classify `RRIRRRPPRLPRPRPRPKNIPRP` by its shrunken log2 fold change
**A:** bottom bin

**Q:** # bin lookup: classify `RRIRNRPPRLPRPRPRPRLVPRP` by its shrunken log2 fold change
**A:** top bin

**Q:** # bin lookup: classify `RRIRRRPPRLPRPRPRPQMEPRP` by its shrunken log2 fold change
**A:** middle bin

**Q:** # bin lookup: classify `RRIRRRPPRLPRPRPRPVIGPRP` by its shrunken log2 fold change
**A:** top bin

**Q:** # bin lookup: classify `RRIRDRPPRLPRPRPRPAWLPRP` by its shrunken log2 fold change
**A:** top bin

**Q:** # bin lookup: classify `RRIRCRPPRLPRPRPRPWKCPRP` by its shrunken log2 fold change
**A:** middle bin

**Q:** # bin lookup: classify `RRIRIRPPRLPRPRPRPLSTPRP` by its shrunken log2 fold change
**A:** bottom bin

**Q:** # bin lookup: classify `RRIRMRPPRLPRPRPRPHCHPRP` by its shrunken log2 fold change
**A:** bottom bin

**Q:** # bin lookup: classify `RRIRMRPPRLPRPRPRPANPPRP` by its shrunken log2 fold change
**A:** top bin

**Q:** # bin lookup: classify `RRIRVRPPRLPRPRPRPDPFPRP` by its shrunken log2 fold change
**A:** top bin
